systemUnderTest: CRAC ion channels (ICRAC current), RBL-2H3 cells (Rattus norvegicus, UniProt Q5M848)
Construct: endogenous in cells; host or cells: RBL-2H3 (rat basophilic leukemia) cells
Sequence (Q5M848 whole entry): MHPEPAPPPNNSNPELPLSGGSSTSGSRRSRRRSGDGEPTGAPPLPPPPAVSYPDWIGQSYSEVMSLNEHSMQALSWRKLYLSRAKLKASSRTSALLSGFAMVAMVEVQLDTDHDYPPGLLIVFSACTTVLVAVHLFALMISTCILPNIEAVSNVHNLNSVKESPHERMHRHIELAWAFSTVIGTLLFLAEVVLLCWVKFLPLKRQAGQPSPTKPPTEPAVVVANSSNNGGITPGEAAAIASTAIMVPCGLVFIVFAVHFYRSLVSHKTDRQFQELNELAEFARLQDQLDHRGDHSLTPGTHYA
assayNotes: Automated patch clamp (Qpatch) inhibition of ICRAC current in RBL-2H3 cells
Type: cell-based
measurementParameters: 100 nM compound, % ICRAC inhibition
Listing of recorded inhibition at 0.1 µM by entry.

{"structureNotation": "CC1=C(c2ccc(NC(=O)c3c(C)cccc3Cl)cc2)CN(c2nnn(C)n2)CC1", "inhibition at 0.1 µM / %": 72}
{"structureNotation": "CC1=C(c2cnc(NC(=O)c3cc(F)ccc3Cl)cn2)CN(c2nnn(C)n2)CC1", "inhibition at 0.1 µM / %": 84}
{"structureNotation": "CC1=C(c2ccc(NC(=O)c3c(F)cccc3F)cc2)CN(c2nnn(C)n2)CC1", "inhibition at 0.1 µM / %": 53}
{"structureNotation": "Cn1nnc(N2CCC(C3CC3)=C(c3cnc(NC(=O)c4c(F)cccc4F)cn3)C2)n1", "inhibition at 0.1 µM / %": 54}
{"structureNotation": "CCn1nnc(N2CCC(C)=C(c3ccc(NC(=O)c4cncc(F)c4C)cc3)C2)n1", "inhibition at 0.1 µM / %": 68}
{"structureNotation": "CC1=C(c2ccc(NC(=O)c3cccc(F)c3Cl)cc2)CN(c2nnn(C)n2)CC1", "inhibition at 0.1 µM / %": 69}
{"structureNotation": "CC1=C(c2ccc(NC(=O)c3cccc(F)c3C)nc2)CN(c2nnn(C)n2)CC1", "inhibition at 0.1 µM / %": 65}
{"structureNotation": "Cc1ccncc1C(=O)Nc1ccc(C2=C(Cl)CCN(c3nnn(C)n3)C2)cc1", "inhibition at 0.1 µM / %": 60}
